# target.under.test: CHIKV strain LR2006 OPY1 (LR) (ECSA genotype) (Chikungunya virus strain LR2006 OPY1)
# assay.procedure: cell-based or functional assay
Neutralization (FRNT), EC50 overview
All answers are understood in ng/mL, so give the number only.

• 4J21 (antibody, V domains shown) VH: QVQLVQSGSELKKPGASVKVSCKASGYSFTSYSINWVRQAPGQGPEWMGWIDTNTGNPTYAQDFAGRFVFSLDTSVTTAYLQISSLKAGDTAVYYCATYYVDLWGSYRQDYYGMDVWGHGTLVTVSS VL: QSVVTQPPSVSGTPGQGVTISCSGGSSNIGSNPVNWYQMVPGTAPKLLLYTNNQRPSGVPDRFSGSKSGTSASLAINGLQSEDEADYYCAVWDDSLSGRWVFGGGTKLTVL = 7.4

Read the next record carefully.
Query: For 5O14 (antibody, V domains shown) VH: QVQLVQSGGRVVQAGRSLRLSCAASGFTFSMYGVHWVRQAPGKGLEWVAVIWNDGSKEYYGDSVKGRFTISRDNSRNTLYLQMNSLRVDDTAVYFCARDGIPDPERGDYGGLDYWGQGTLVTVSS VL: QTVVTQFPSSPFASVGDGVTITCRARQSISSYVNWYQQKPGKAPKLLIYATSSLQSGVPSRFSGSGYGTDFTLTISGLQPEDFATYYCQQSYSFPRTFGQGTKVEIK , what is its reported Neutralization (FRNT), EC50?
Response: 12.1

Attribution: patent US20180079802A1
